assay.protocol: in vitro
conditions.used: human
readout.name: hemolysis at 62 µg/mL (%)
Please give a number only; it is taken to be in %.

Lookup: Provide hemolysis at 62 µg/mL value for the following compound: COc1cc(NC(C)CCCN)c2ncccc2c1 (stereo not shown) [PQ, Primaquine]
Found: 0

----------
assay.protocol: In vitro hemolysis assay
conditions.used: human
readout.name: hemolysis at 250 µg/mL (%)
Please give a number only; it is taken to be in %.

Lookup: Provide hemolysis at 250 µg/mL value for the following molecule: COc1cc(NC(C)CCCN)c2ncccc2c1 (stereo not shown)
Found: 50

----------
assay.protocol: in vitro
conditions.used: human
readout.name: hemolysis at 1000 µg/mL (%)
Please give a number only; it is taken to be in %.

Lookup: Provide hemolysis at 1000 µg/mL value for the following compound: COc1cc(NC(C)CCCN)c2ncccc2c1 (stereo not shown)
Found: 100
